Just for reference, PubChem BioAssay AID1259407 is where these values come from.

Tested on: CCRIS mutagenicity, Ames/micronucleus/aberration tests
Assay: CCRIS mutagenicity studies
Settings: Test System: AMES SALMONELLA TYPHIMURIUM; Strain/Indicator: TA1535; Metabolic Activation: NONE; Method: STANDARD PLATE
Active and inactive are the calls of the source. How the calls were made is not given here.
Allowed answers: Y (active), N (inactive)

Lookup: Field: outcome | Entry: `O=S(O)O`
Found: N

Lookup: Field: outcome | Entry: CC1CCCO1 (stereo not given)
Found: N

Lookup: Field: outcome | Entry: `CCO[Si](C)(OCC)OCC`
Found: N

Lookup: Field: outcome | Entry: `CC/C=C\C/C=C\C/C=C\CCCCCCCC(=O)O`
Found: N

Lookup: Field: outcome | Entry: COc1ccccc1CC1CO1 (stereo not given)
Found: Y

Lookup: Field: outcome | Entry: `O=[Se](=O)(O)O`
Found: Y

Lookup: Field: outcome | Entry: `ClCCCl`
Found: N

Lookup: Field: outcome | Entry: `O=S(=O)(Nc1ccc(Cl)c(Cl)c1)c1cccc2cccnc12`
Found: N

Lookup: Field: outcome | Entry: `NCC(=O)O`
Found: N

Lookup: Field: outcome | Entry: `O=C(O)c1cc(=O)c2c(OCC(O)COc3cccc4oc(C(=O)O)cc(=O)c34)cccc2o1`
Found: N

Lookup: Field: outcome | Entry: `O=c1[nH]c(=O)[nH]c(=O)[nH]1`
Found: N

Lookup: Field: outcome | Entry: `[2H]C([2H])([2H])N=NO`
Found: Y

Lookup: Field: outcome | Entry: `CN(C)c1ccc(C(=O)c2ccc(N(C)C)cc2)cc1`
Found: N

Lookup: Field: outcome | Entry: `O=[N+]([O-])c1ccccc1OS(=O)(=O)c1cccc2cccnc12`
Found: N

Lookup: Field: outcome | Entry: `O=c1[nH]cnc2c1ncn2[C@H]1CC[C@@H](CO)O1`
Found: N
